System: tetA promoter (PtetA)-lacZ reporter in E. coli KM3
Format: cell-based
testParameters: Table 6, reverse repressor hits; no inducer
observationType: relative β-galactosidase activity, inducer Blank

INSERT INTO results (molecule, testresult) VALUES
  ('L1-18: library L1 reverse repressor hit (SEQ ID NO: 1206-1213) (protein, rSuR L1-18) MGSRLDKSKVINSALELLNEVGIEGLTTRKLAQKLGVEQPTLYWHVKNKRALLDALAIEMLDRHLTHFCPLEGESWQDFLRNNAKSMRCALLSHRDGAKVWLGTGFTEKQYETKENRLAFLCQQGFSLENALYAIRAVSRFTLGCVLQDQEPQVAKEERETPTTDSMPPLLRQAVELFDHQGAEPAFLFGLELIICGLEKQLKCESES', 1.34),
  ('L1-41: library L1 reverse repressor hit (SEQ ID NO: 1206-1213) (protein, rSuR L1-41) MGSRLDKSKVINSALELLNEVGIEGLTTRKLAQKLGVEQPTLYWHVKNKRALLDALAIEMLDRNQTHFCPLEGESWQDFLRNNAKSWRCALLSHRDGAKVMLGTRNTEKQYETAENGLAFLCQQGFSLENALYACRAVWTFTLGCVLDDQETQVAKEERETPTSDSMPPLLRQAMELKDHQGAEPAFLFGLELIICGLEKQLKCESGS', 4.05),
  ('L1-21: library L1 reverse repressor hit (SEQ ID NO: 1206-1213) (protein, rSuR L1-21) MGSRLDKSKVINSALELLNEVGIEGLTTRKLAQKLGVEQPTLYWHVKNKRALLDALAIEMLDRHATHFCPLEGESWQDFLRNNAKSFRCALLSHRDGAKVCLGTAGTEKQYETLENCLAFLCQQGFSLENALYARSAVVCFTLGCVLFDQEMQVAKEERETPTTDSMPPLLRQAAELLDHQGAEPAFLFGLELIICGLEKQLKCESGS', 2.88);
